Biological target: Cytochrome P450 2D6 (Homo sapiens)
Test: Cytochrome panel assay with activity outcomes
Conditions: recombinant CYP, pro-luciferin dealkylation, luminescence, p450-cyp2d6; series mostly up to 57.1 µM
About 2,600 (16%) of roughly 16,000 compounds were called active. Roughly 20% stayed inconclusive and do not appear here. Calls come from the whole dose curve; as a rule, active = well fitted curve in the direction sought with a large enough effect; inconclusive = small, poorly fitted or top-dose-only effect, or effect the other way; inactive = no such curve, though single readings can be large or run the other way. Not all results are given here.
Outcomes: T for active, F for inactive

Compound: COc1ccc2c(c1OC)C(=O)N(C(C)C(=O)O)C2=O (stereo unspecified)
Target or system: Cytochrome P450 2D6 (Homo sapiens)
Assigned class: F

Compound: CCNC(=O)C1CC(=O)OC12CCCCC2 (stereo unspecified)
Target or system: Cytochrome P450 2D6 (Homo sapiens)
Assigned class: F

Compound: CCCC(=O)Nc1nc2n(n1)C(c1ccccc1)CC(=O)N2 (stereo unspecified)
Target or system: Cytochrome P450 2D6 (Homo sapiens)
Assigned class: F

Compound: O=C(Nc1ccccc1Cl)c1ccccc1Cl
Target or system: Cytochrome P450 2D6 (Homo sapiens)
Assigned class: F

Compound: Cc1ccc(/C=C/C(=O)NC(=S)Nc2ccccc2C(=O)NC2CCCCC2)cc1
Target or system: Cytochrome P450 2D6 (Homo sapiens)
Assigned class: F

Compound: O=C1CCC(c2ccc(-n3ccnc3)cc2)=NN1
Target or system: Cytochrome P450 2D6 (Homo sapiens)
Assigned class: T

Compound: CC(Oc1ccccc1)C(=O)Nc1nc2c(s1)C(=O)CC(C)(C)C2 (stereo unspecified)
Target or system: Cytochrome P450 2D6 (Homo sapiens)
Assigned class: F

Compound: CC(=O)Nc1ccc(NC(=O)C2CCN(S(=O)(=O)c3cccc4nonc34)CC2)cc1
Target or system: Cytochrome P450 2D6 (Homo sapiens)
Assigned class: F

Compound: CN1CCN(c2ncc3ncc(=O)n(C[C@H]4CCCO4)c3n2)CC1
Target or system: Cytochrome P450 2D6 (Homo sapiens)
Assigned class: F

Compound: CCn1c(O)c(/C=N/N=C2CCCC2)c2ccc(C3=NNC(=O)CC3)cc21
Target or system: Cytochrome P450 2D6 (Homo sapiens)
Assigned class: F

Compound: O=C(Nc1cccc(Cl)c1Cl)c1snnc1-c1ccccc1
Target or system: Cytochrome P450 2D6 (Homo sapiens)
Assigned class: T

Every entry's value here was drawn from PubChem BioAssay AID1851.
